System: semimembranosus beef muscles
ASSAY_EXPLANATION: Glycogen content, pre-rigor injection of whole muscle
MEASUREMENT_PARAMETERS: 0 h (before injection)
Glycogen, 0 h listing for selected compounds.
Answer format: numeric, μmol/g muscle implied, no suffix.

Recorded results for 3 compounds are shown here.
O=C([O-])CC(O)(CC(=O)[O-])C(=O)[O-].[Na+].[Na+].[Na+] [Sodium citrate, sodium citrate]: 65.12
CC(=O)[O-].[Na+] [Sodium acetate, sodium acetate]: 64.24
[Ca+2].[Cl-].[Cl-] [Calcium chloride, calcium chloride, reference compound]: 58.18

Next, consider the following compound.
Please report the recorded Glycogen, 0 h for [F-].[Na+] [Sodium fluoride, sodium fluoride, reference compound] .
62.90
